# Test system: AR mRNA
# Method summary: Antisense inhibition of human AR in HuVEC cells, single concentration (electroporation, qRT-PCR RTS3559)
# Assay type: cell-based
# Condition notes: 500 nM ASO, ~24 h, Table 16
# Experimental: Antisense oligonucleotides were designed targeting an AR nucleic acid and were tested for their effects on AR mRNA in vitro. The antisense oligonucleotides were tested in a series of experiments that had similar culture conditions. […] AR mRNA levels were adjusted according to total RNA content, as measured by RIBOGREEN®. […] AR mRNA levels were adjusted according to total RNA content, as measured by RIBOGREEN®. […] AR mRNA levels were adjusted according to total RNA content, as measured by RIBOGREEN®. […]
Oligonucleotides are written 5' to 3', each unit as a sugar letter and its base; * is a phosphorothioate linkage, no mark a phosphodiester; rarer units and linkages stand in square brackets, end groups in braces. Plain capitals give the bases only. k = constrained ethyl (cEt); [5mC] = 5-methylcytosine; d = 2'-deoxy (DNA)
Readout type: % inhibition (%)

{"Substance": "583566 (antisense k[5mC]*k[5mC]*kT*dT*dG*d[5mC]*dT*dT*d[5mC]*d[5mC]*dT*d[5mC]*d[5mC]*kG*kA*kG) [compound 583566]", "Target under test": "AR mRNA", "Readout type": "% inhibition", "Readout number": 47}
{"Substance": "583556 (antisense kA*kA*k[5mC]*dT*dT*d[5mC]*dA*d[5mC]*d[5mC]*dG*dA*dA*dG*kA*kG*kG) [compound 583556]", "Target under test": "AR mRNA", "Readout type": "% inhibition", "Readout number": 43}
{"Substance": "583567 (antisense kG*k[5mC]*kA*d[5mC]*dT*dT*dT*d[5mC]*d[5mC]*dT*dT*dG*d[5mC]*kT*kT*k[5mC]) [compound 583567]", "Target under test": "AR mRNA", "Readout type": "% inhibition", "Readout number": 52}
{"Substance": "583571 (antisense kT*k[5mC]*kA*dG*dT*d[5mC]*d[5mC]*dT*dA*d[5mC]*d[5mC]*dA*dG*kG*k[5mC]*kA) [compound 583571]", "Target under test": "AR mRNA", "Readout type": "% inhibition", "Readout number": 43}
{"Substance": "583584 (antisense k[5mC]*k[5mC]*kG*dA*d[5mC]*dT*dG*dA*dG*dG*d[5mC]*dA*dG*k[5mC]*kT*kG) [compound 583584]", "Target under test": "AR mRNA", "Readout type": "% inhibition", "Readout number": 44}
{"Substance": "583542 (antisense kA*k[5mC]*kA*dG*d[5mC]*dA*d[5mC]*dT*dG*dG*dA*dG*d[5mC]*kG*kG*k[5mC]) [compound 583542]", "Target under test": "AR mRNA", "Readout type": "% inhibition", "Readout number": 45}
{"Substance": "549372 (kA*kA*kG*dT*dT*dG*dT*dA*dG*dT*dA*dG*dT*k[5mC]*kG*k[5mC]) [compound 549372]", "Target under test": "AR mRNA", "Readout type": "% inhibition", "Readout number": 47}
{"Substance": "583564 (antisense kG*k[5mC]*kT*dT*d[5mC]*d[5mC]*dT*d[5mC]*d[5mC]*dG*dA*dG*dT*k[5mC]*kT*kT) [compound 583564]", "Target under test": "AR mRNA", "Readout type": "% inhibition", "Readout number": 45}
{"Substance": "583559 (antisense kA*kG*kT*d[5mC]*dT*dT*dT*dA*dG*d[5mC]*dA*dG*d[5mC]*kT*kT*kT) [compound 583559]", "Target under test": "AR mRNA", "Readout type": "% inhibition", "Readout number": 52}
{"Substance": "549458 (kG*kT*kT*dG*dA*dT*dT*dT*dA*dA*dT*dG*dG*kT*kT*kG) [compound 549458]", "Target under test": "AR mRNA", "Readout type": "% inhibition", "Readout number": 60}
{"Substance": "583583 (antisense kG*kA*k[5mC]*dT*dG*dA*dG*dG*d[5mC]*dA*dG*d[5mC]*dT*kG*k[5mC]*kG) [compound 583583]", "Target under test": "AR mRNA", "Readout type": "% inhibition", "Readout number": 45}
